These entries and their values trace back to ChEMBL document CHEMBL5634077.

Tested on: Staphylococcus aureus
Experiment: Antibacterial activity against Staphylococcus aureus ATCC 29213 assessed as reduction in bacterial growth by micro-broth dilution method
Format: functional
Measured MIC accompanies every entry in the list below.

{"substanceSmiles": "CC1(C)S[C@@H]2[C@H](NC(=O)[C@H](N)c3ccccc3)C(=O)N2[C@H]1C(=O)O", "MIC / µg/mL": 2}
{"substanceSmiles": "O=c1cc(-c2ccccc2)c2cc(Cl)ccc2n1Cc1nnc2n1N=C(c1ccccc1)CS2", "MIC / µg/mL": 2}
{"substanceSmiles": "O=c1cc(-c2ccccc2)c2cc(Br)ccc2n1Cc1nnc2n1N=C(c1ccccc1)CS2", "MIC / µg/mL": 1}
{"substanceSmiles": "O=c1cc(-c2ccccc2)c2cc(F)ccc2n1Cc1nnc2n1N=C(c1ccccc1)CS2", "MIC / µg/mL": 2}

---

Measured MIC accompanies every entry in the list below.
System: Aspergillus niger
Assay: […] activity against Aspergillus niger NCIM 2191 assessed as reduction in […] by micro-broth dilution method
Type: functional

{"substanceSmiles": "OC(Cn1cncn1)(Cn1cncn1)c1ccc(F)cc1F", "MIC / µg/mL": 4}
{"substanceSmiles": "O=c1cc(-c2ccccc2)c2cc(F)ccc2n1Cc1nnc2n1N=C(c1ccccc1)CS2", "MIC / µg/mL": 4}
{"substanceSmiles": "O=c1cc(-c2ccccc2)c2cc(Br)ccc2n1Cc1nnc2n1N=C(c1ccccc1)CS2", "MIC / µg/mL": 4}
{"substanceSmiles": "O=c1cc(-c2ccccc2)c2cc(Cl)ccc2n1Cc1nnc2n1N=C(c1ccccc1)CS2", "MIC / µg/mL": 2}

---

System: Staphylococcus aureus
Assay: Antimicrobial activity against Staphylococcus aureus assessed as diameter of inhibition zone incubated for 24 hrs by disc-diffusion method
Format: functional
measuredQuantity: diameter of the inhibition zone (DIZ) (mm)

{"substanceSmiles": "COc1cc(/C=N/n2c(-c3ccc(Cl)cc3)n[nH]c2=S)ccc1O", "measuredQuantity": "diameter of the inhibition zone (DIZ)", "result": 4}
{"substanceSmiles": "S=c1[nH]nc(-c2ccc(Cl)cc2Cl)n1/N=C/c1ccco1", "measuredQuantity": "diameter of the inhibition zone (DIZ)", "result": 3}
{"substanceSmiles": "COc1cc(/C=N/n2c(-c3ccc(Cl)cc3Cl)n[nH]c2=S)ccc1O", "measuredQuantity": "diameter of the inhibition zone (DIZ)", "result": 3}
{"substanceSmiles": "Sc1nnc(-c2ccc(Cl)cc2)n1/N=C/c1ccco1", "measuredQuantity": "diameter of the inhibition zone (DIZ)", "result": 4}

---

Test system: Escherichia coli
Assay: Antibacterial activity against Escherichia coli ATCC 8739 assessed as reduction in bacterial growth by micro-broth dilution method
Type: functional
measuredQuantity: MIC (µg/mL)

{"substanceSmiles": "O=c1cc(-c2ccccc2)c2cc(Br)ccc2n1Cc1nnc2n1N=C(c1ccccc1)CS2", "measuredQuantity": "MIC", "resultUnit": "µg/mL", "result": 2}
{"substanceSmiles": "O=c1cc(-c2ccccc2)c2cc(F)ccc2n1Cc1nnc2n1N=C(c1ccccc1)CS2", "measuredQuantity": "MIC", "resultUnit": "µg/mL", "result": 8}
{"substanceSmiles": "CC1(C)S[C@@H]2[C@H](NC(=O)[C@H](N)c3ccccc3)C(=O)N2[C@H]1C(=O)O", "measuredQuantity": "MIC", "resultUnit": "µg/mL", "result": 1}
{"substanceSmiles": "O=c1cc(-c2ccccc2)c2cc(Cl)ccc2n1Cc1nnc2n1N=C(c1ccccc1)CS2", "measuredQuantity": "MIC", "resultUnit": "µg/mL", "result": 2}

---

Tested on: Staphylococcus epidermidis
Test: Antibacterial activity against Staphylococcus epidermidis assessed as inhibition of bacterial growth by microdilution method
Assay type: functional
Strictly below 20 µg/mL in MIC: Criterion met. Otherwise: Criterion not met.

{"molecule": "O=c1cc(OCc2cn(-c3ccc(N4CCOCC4)c(F)c3)nn2)c2ccccc2o1", "targetUnderTest": "Staphylococcus epidermidis", "labelValue": "Criterion not met"}
{"molecule": "Cc1cc(=O)oc2cc(OCc3cn(-c4ccc(N5CCOCC5)c(F)c4)nn3)ccc12", "targetUnderTest": "Staphylococcus epidermidis", "labelValue": "Criterion not met"}
{"molecule": "Fc1cc(-n2cc(CN3c4ccccc4Sc4ccccc43)nn2)ccc1N1CCOCC1", "targetUnderTest": "Staphylococcus epidermidis", "labelValue": "Criterion not met"}
{"molecule": "O=C(OCc1cn(-c2ccc(N3CCOCC3)c(F)c2)nn1)c1cc2ccccc2[nH]1", "targetUnderTest": "Staphylococcus epidermidis", "labelValue": "Criterion met"}
{"molecule": "Fc1cc(-n2cc(COc3cccc4cccnc34)nn2)ccc1N1CCOCC1", "targetUnderTest": "Staphylococcus epidermidis", "labelValue": "Criterion not met"}
{"molecule": "O=C1CSc2ccccc2N1Cc1cn(-c2ccc(N3CCOCC3)c(F)c2)nn1", "targetUnderTest": "Staphylococcus epidermidis", "labelValue": "Criterion not met"}
{"molecule": "Fc1cc(-n2cc(CSc3nc4ccccc4o3)nn2)ccc1N1CCOCC1", "targetUnderTest": "Staphylococcus epidermidis", "labelValue": "Criterion met"}
{"molecule": "Fc1cc(-n2cc(COc3cc(Cl)cc(Cl)c3)nn2)ccc1N1CCOCC1", "targetUnderTest": "Staphylococcus epidermidis", "labelValue": "Criterion met"}
{"molecule": "CC1(C)S[C@@H]2[C@H](NC(=O)Cc3ccccc3)C(=O)N2[C@H]1C(=O)O [PENICILLIN G]", "targetUnderTest": "Staphylococcus epidermidis", "labelValue": "Criterion met"}
{"molecule": "Fc1ccccc1OCc1cn(-c2ccc(N3CCOCC3)c(F)c2)nn1", "targetUnderTest": "Staphylococcus epidermidis", "labelValue": "Criterion met"}
{"molecule": "O=C1COc2cc(Br)ccc2N1Cc1cn(-c2ccc(N3CCOCC3)c(F)c2)nn1", "targetUnderTest": "Staphylococcus epidermidis", "labelValue": "Criterion not met"}
{"molecule": "Fc1ccc(OCc2cn(-c3ccc(N4CCOCC4)c(F)c3)nn2)cc1", "targetUnderTest": "Staphylococcus epidermidis", "labelValue": "Criterion met"}
{"molecule": "O=C1CS(=O)(=O)c2ccccc2N1Cc1cn(-c2ccc(N3CCOCC3)c(F)c2)nn1", "targetUnderTest": "Staphylococcus epidermidis", "labelValue": "Criterion not met"}
{"molecule": "Fc1cc(-n2cc(COc3cccc(Cl)c3)nn2)ccc1N1CCOCC1", "targetUnderTest": "Staphylococcus epidermidis", "labelValue": "Criterion not met"}
{"molecule": "CN[C@@H]1[C@H](O[C@H]2[C@H](O[C@H]3[C@H](O)[C@@H](O)[C@H](N=C(N)N)[C@@H](O)[C@@H]3N=C(N)N)O[C@@H](C)[C@]2(O)C=O)O[C@@H](CO)[C@H](O)[C@H]1O [STREPTOMYCIN]", "targetUnderTest": "Staphylococcus epidermidis", "labelValue": "Criterion met"}
{"molecule": "Fc1cc(-n2cc(CSc3nc4cc(Br)ccc4s3)nn2)ccc1N1CCOCC1", "targetUnderTest": "Staphylococcus epidermidis", "labelValue": "Criterion not met"}

---

Tested on: Candida albicans
Experiment: Antifungal activity against Candida albicans SC5314 assessed as reduction in fungal growth incubated for 24 hrs by NCCLS based assay
Assay type: functional
measuredQuantity: MIC80 (µg/mL)

{"substanceSmiles": "C[C@@H](c1nc(-c2ccc(C#N)cc2)cs1)[C@](O)(Cn1cncn1)c1ccc(F)cc1F", "targetUnderTest": "Candida albicans", "result": 0.25}
{"substanceSmiles": "COc1ccc(-c2cc(CO[C@H](C)[C@](O)(Cn3cncn3)c3ccc(F)cc3F)on2)cc1", "targetUnderTest": "Candida albicans", "result": 0.5}
{"substanceSmiles": "Cc1ccccc1-c1cc(CO[C@H](C)[C@](O)(Cn2cncn2)c2ccc(F)cc2F)on1", "targetUnderTest": "Candida albicans", "result": 0.125}
{"substanceSmiles": "C[C@@H](OCc1cc(-c2cccc(F)c2F)no1)[C@](O)(Cn1cncn1)c1ccc(F)cc1F", "targetUnderTest": "Candida albicans", "result": 0.5}

---

Measured log10 of MIC accompanies every entry in the list below.
System: Staphylococcus aureus
Assay: Antibacterial activity against Staphylococcus aureus assessed as inhibition of bacterial growth by microdilution method
Format: functional
measuredQuantity: log10 of MIC (log10 of the value in µg/mL)

{"molecule": "CN[C@@H]1[C@H](O[C@H]2[C@H](O[C@H]3[C@H](O)[C@@H](O)[C@H](N=C(N)N)[C@@H](O)[C@@H]3N=C(N)N)O[C@@H](C)[C@]2(O)C=O)O[C@@H](CO)[C@H](O)[C@H]1O [STREPTOMYCIN]", "targetUnderTest": "Staphylococcus aureus", "log10 of MIC": 0.80}
{"molecule": "O=C1CSc2ccccc2N1Cc1cn(-c2ccc(N3CCOCC3)c(F)c2)nn1", "targetUnderTest": "Staphylococcus aureus", "log10 of MIC": 0.19}
{"molecule": "Fc1ccc(OCc2cn(-c3ccc(N4CCOCC4)c(F)c3)nn2)cc1", "targetUnderTest": "Staphylococcus aureus", "log10 of MIC": 0.49}
{"molecule": "Fc1cc(-n2cc(CSc3nc4ccccc4o3)nn2)ccc1N1CCOCC1", "targetUnderTest": "Staphylococcus aureus", "log10 of MIC": 1.40}
{"molecule": "Fc1cc(-n2cc(CSc3nc4cc(Br)ccc4s3)nn2)ccc1N1CCOCC1", "targetUnderTest": "Staphylococcus aureus", "log10 of MIC": 1.70}
{"molecule": "O=C(OCc1cn(-c2ccc(N3CCOCC3)c(F)c2)nn1)c1cc2ccccc2[nH]1", "targetUnderTest": "Staphylococcus aureus", "log10 of MIC": 1.40}
{"molecule": "Fc1cc(-n2cc(COc3cccc(Cl)c3)nn2)ccc1N1CCOCC1", "targetUnderTest": "Staphylococcus aureus", "log10 of MIC": 1.40}
